Origin of values: ChEMBL document CHEMBL1157036

TEST_CONDITIONS: octanol/water
Description: Octanol-water partition coefficient, log P of the compound
Below is a list of entries, each paired with its recorded logP value.

COc1cc([C@@H]2c3cc4c(cc3[C@@H](O[C@@H]3O[C@@H]5CO[C@@H](c6cccs6)O[C@H]5[C@H](O)[C@H]3O)[C@H]3COC(=O)[C@H]23)OCO4)cc(OC)c1O [TENIPOSIDE]
1.5
CN(C)/N=N/c1[nH]cnc1C(N)=O [DACARBAZINE]
-1.6
Nc1nc2[nH]cc(CCc3ccc(C(=O)N[C@@H](CCC(=O)O)C(=O)O)cc3)c2c(=O)[nH]1 [PEMETREXED]
-1.5
CC[C@]1(O)C[C@@H]2CN(CCc3c([nH]c4ccccc34)[C@@](C(=O)OC)(c3cc4c(cc3OC)N(C)[C@H]3[C@@](O)(C(=O)OC)[C@H](OC(C)=O)[C@]5(CC)C=CCN6CC[C@]43[C@@H]65)C2)C1 [VINBLASTINE]
3.9

Please turn your attention to the following entry.
Task item: State its logP: Cn1nnc2c(C(N)=O)ncn2c1=O [TEMOZOLOMIDE]
Reply: -2.8

---

TEST: physchem
TEST_CONDITIONS: octanol/water
Description: Octanol-water partition coefficient, log P of the compound
Below is a list of entries, each paired with its recorded logP value.
Lab note: write the figure by itself, no unit.

O=C(O)CCCc1ccc(N(CCCl)CCCl)cc1
3.9
C[C@]12CC[C@@H]3c4ccc(OC(=O)N(CCCl)CCCl)cc4CC[C@H]3[C@@H]1CC[C@@H]2O
5.7
O=c1[nH]cc(F)c(=O)[nH]1
-0.8
CC[C@]1(O)C[C@@H]2CN(CCc3c([nH]c4ccccc34)[C@@](C(=O)OC)(c3cc4c(cc3OC)N(C)[C@H]3[C@@](O)(C(N)=O)[C@H](O)[C@]5(CC)C=CCN6CC[C@]43[C@@H]65)C2)C1
2.9
CC(=O)[C@]1(O)Cc2c(O)c3c(c(O)c2[C@@H](O[C@H]2C[C@H](N)[C@H](O)[C@H](C)O2)C1)C(=O)c1ccccc1C3=O
0.2
O=P1(NCCCl)OCCCN1CCCl (stereo not drawn) [IFOSFAMIDE]
0.8
Clc1ccc(C(c2ccccc2Cl)C(Cl)Cl)cc1 (stereo not drawn)
6
O=C1c2c(O)ccc(O)c2C(=O)c2c(NCCNCCO)ccc(NCCNCCO)c21
-3.1
CC[C@@]1(O)C(=O)OCc2c1cc1n(c2=O)Cc2cc3c(CN(C)C)c(O)ccc3nc2-1
0.8
COc1cccc2c1C(=O)c1c(O)c3c(c(O)c1C2=O)C[C@@](O)(C(=O)CO)C[C@@H]3O[C@H]1C[C@H](N)[C@H](O)[C@H](C)O1
-0.5

Task item: State its logP: `NCC(=O)CCC(=O)O`
Reply: -1.5

Task item: State its logP: `C=C(c1ccc(C(=O)O)cc1)c1cc2c(cc1C)C(C)(C)CCC2(C)C`
Reply: 6.9

Task item: State its logP: `O=NN(CCCl)C(=O)NC1CCCCC1`
Reply: 3

---

TEST: physchem
TEST_CONDITIONS: octanol/water
Below is a list of entries, each paired with its recorded logP value.
Lab note: write the figure by itself, no unit.

Previously resolved entries follow.
N[C@@H](Cc1ccc(N(CCCl)CCCl)cc1)C(=O)O
0.4
COc1cccc2c1C(=O)c1c(O)c3c(c(O)c1C2=O)C[C@@](O)(C(C)=O)C[C@@H]3O[C@H]1C[C@H](N)[C@H](O)[C@H](C)O1
0.1
CCC1=C[C@@H]2CN(C1)Cc1c([nH]c3ccccc13)[C@@](C(=O)OC)(c1cc3c(cc1OC)N(C)[C@H]1[C@@](O)(C(=O)OC)[C@H](OC(C)=O)[C@]4(CC)C=CCN5CC[C@]31[C@@H]54)C2
4
O=C1CN2Cc3c(ccc(Cl)c3Cl)N=C2N1 [ANAGRELIDE]
2.4
COc1cc(NS(C)(=O)=O)ccc1Nc1c2ccccc2nc2ccccc12
3.8

Task item: State its logP: `Nc1ccn([C@@H]2O[C@H](CO)[C@@H](O)C2(F)F)c(=O)n1`
Reply: -1.4

Task item: State its logP: COc1cccc2c1C(=O)c1c(O)c3c(c(O)c1C2=O)C[C@@](O)(C(=O)CO)C[C@@H]3O[C@H]1C[C@H](N)[C@@H](O)[C@H](C)O1 [EPIRUBICIN]
Reply: -0.5

---

Below is a list of entries, each paired with its recorded logP value.
TEST: physchem
TEST_CONDITIONS: octanol/water
Lab note: write the figure by itself, no unit.

Task item: State its logP: `Nc1nc(Cl)nc2c1ncn2[C@@H]1O[C@H](CO)[C@@H](O)[C@@H]1F`
Reply: 0

Task item: State its logP: COC(=O)CCC(=O)CN [METHYL AMINOLEVULINATE]
Reply: -1.2

Task item: State its logP: `O=C(CCBr)N1CCN(C(=O)CCBr)CC1`
Reply: 1.1

Task item: State its logP: Sc1ncnc2nc[nH]c12 [MERCAPTOPURINE ANHYDROUS]
Reply: -0.4

Task item: State its logP: `CN(N=O)C(=O)N[C@@H](C=O)[C@@H](O)[C@H](O)[C@H](O)CO`
Reply: -1.7

---

Below is a list of entries, each paired with its recorded logP value.
TEST: physchem
TEST_CONDITIONS: octanol/water
Lab note: write the figure by itself, no unit.

CN(Cc1cnc2nc(N)nc(N)c2n1)c1ccc(C(=O)N[C@@H](CCC(=O)O)C(=O)O)cc1 [METHOTREXATE]
-2.2

Task item: State its logP: `CCCCC(=O)OCC(=O)[C@]1(O)Cc2c(O)c3c(c(O)c2[C@@H](O[C@H]2C[C@H](NC(=O)C(F)(F)F)[C@H](O)[C@H](C)O2)C1)C(=O)c1c(OC)cccc1C3=O`
Reply: 2.2

Task item: State its logP: `OC[C@H]1O[C@@H](n2cnc3c2NC=NC[C@H]3O)C[C@@H]1O`
Reply: -1.1

Task item: State its logP: `Nc1nc2nc[nH]c2c(=S)[nH]1`
Reply: -0.7

Task item: State its logP: `CN(C)c1nc(N(C)C)nc(N(C)C)n1`
Reply: 1.7

Task item: State its logP: `CC(=O)O[C@H]1C(=O)[C@@]2(C)[C@H]([C@H](OC(=O)c3ccccc3)[C@]3(O)C[C@H](OC(=O)[C@H](O)[C@@H](NC(=O)c4ccccc4)c4ccccc4)C(C)=C1C3(C)C)[C@]1(OC(C)=O)CO[C@@H]1C[C@@H]2O`
Reply: 3

Task item: State its logP: `Cc1nc2ccc(CN(C)c3ccc(C(=O)N[C@@H](CCC(=O)O)C(=O)O)s3)cc2c(=O)[nH]1`
Reply: -1.2

---

Below is a list of entries, each paired with its recorded logP value.
TEST: physchem
TEST_CONDITIONS: octanol/water
Lab note: write the figure by itself, no unit.

Previously resolved entries follow.
Nc1nc(F)nc2c1ncn2[C@@H]1O[C@H](CO)[C@@H](O)[C@@H]1O
-2.8
CCCCCOC(=O)Nc1nc(=O)n([C@@H]2O[C@H](C)[C@@H](O)[C@H]2O)cc1F
0.4

Task item: State its logP: `CS(=O)(=O)OCCCCOS(C)(=O)=O`
Reply: -0.3

Task item: State its logP: `Cc1ccc(-c2cc(C(F)(F)F)nn2-c2ccc(S(N)(=O)=O)cc2)cc1`
Reply: 3.9

Task item: State its logP: O=P1(N(CCCl)CCCl)NCCCO1 (stereo not given) [CYCLOPHOSPHAMIDE ANHYDROUS]
Reply: 0.8
